molecular target: Tryptase, from human lung; test: Enzymatic assay, tryptase; conditions: read-out: Tryptase IC50
Where a SMILES comes first, the peptide text is derived from it.
Assay Metric: IC50

Compound	Measurement Target	IC50
CC[C@H](C)[C@@H]1NC(=O)[C@@H]2CCCN2C(=O)[C@H]2CCCN2C(=O)[C@H](CCCCN)NC(=O)[C@@H]2CSSC[C@H](NC1=O)C(=O)N[C@@H]([C@@H](C)O)C(=O)N[C@@H](CCCCN)C(=O)N[C@@H](CO)C(=O)N[C@@H](CC(C)C)C(=O)N1CCC[C@H]1C(=O)N1CCC[C@H]1C(=O)N[C@@H](CCCNC(=N)N)C(=O)N2 [Ex. 190] (HELM PEPTIDE1{I.C.T.K.S.L.P.P.R.C.K.[dP].P}$PEPTIDE1,PEPTIDE1,2:R3-10:R3|PEPTIDE1,PEPTIDE1,1:R1-13:R2$$$V2.0)	Tryptase, from human lung	< 100 nM

Exercise: Give recorded IC50. CC[C@H](C)[C@@H]1NC(=O)[C@@H]2CCCN2C(=O)[C@H]2CCCN2C(=O)[C@H](CCCNC(=N)N)NC(=O)[C@@H]2CSSC[C@H](NC1=O)C(=O)N[C@@H]([C@@H](C)O)C(=O)N[C@@H](CCCCN)C(=O)N[C@@H](CO)C(=O)N[C@@H](CC(C)C)C(=O)N1CCC[C@H]1C(=O)N1CCC[C@H]1C(=O)N[C@@H](Cc1c[nH]cn1)C(=O)N2 [Ex. 187] (HELM PEPTIDE1{I.C.T.K.S.L.P.P.H.C.R.[dP].P}$PEPTIDE1,PEPTIDE1,2:R3-10:R3|PEPTIDE1,PEPTIDE1,1:R1-13:R2$$$V2.0)
Key: < 100 nM

Exercise: Give recorded IC50. CC[C@H](C)[C@@H]1NC(=O)[C@@H]2CCCN2C(=O)[C@H]2CCCN2C(=O)[C@H](CCCNC(=N)N)NC(=O)[C@@H]2CSSC[C@H](NC1=O)C(=O)N[C@@H]([C@@H](C)O)C(=O)N[C@@H](CCCCN)C(=O)N[C@@H](CO)C(=O)N[C@@H](CC(C)C)C(=O)N1CCC[C@H]1C(=O)N1CCC[C@H]1C(=O)N[C@@H]([C@@H](C)CC)C(=O)N2 [Ex. 180] (HELM PEPTIDE1{I.C.T.K.S.L.P.P.I.C.R.[dP].P}$PEPTIDE1,PEPTIDE1,2:R3-10:R3|PEPTIDE1,PEPTIDE1,1:R1-13:R2$$$V2.0)
Key: < 100 nM

Exercise: Give recorded IC50. CC(C)C[C@@H]1NC(=O)[C@H](CO)NC(=O)[C@H](CCCCN)NC(=O)[C@H]([C@@H](C)O)NC(=O)[C@@H]2CSSC[C@H](NC(=O)[C@H](CCCCN)NC(=O)[C@@H]3CCCN3C(=O)[C@@H]3CCCN3C1=O)C(=O)N[C@@H](CCCNC(=N)N)C(=O)N1CCC[C@@H]1C(=O)N1CCC[C@H]1C(=O)N[C@@H](Cc1c[nH]c3ccccc13)C(=O)N2 [Ex. 195] (HELM PEPTIDE1{W.C.T.K.S.L.P.P.K.C.R.[dP].P}$PEPTIDE1,PEPTIDE1,2:R3-10:R3|PEPTIDE1,PEPTIDE1,1:R1-13:R2$$$V2.0)
Key: 12 nM

* * *

system: HELA cells (Acc57); assay: Cytotoxicity assay (MTT reduction), HELA cells; format: cell-based; conditions: Hela cells
Where a SMILES comes first, the peptide text is derived from it.
Assay Metric: Cytotoxicity LC50/GI50 Hela cells (µM)
Your answer is read as µM, so omit the unit and give the number.

Exercise: Give recorded Cytotoxicity LC50/GI50 Hela cells. CC[C@H](C)[C@@H]1NC(=O)[C@@H]2CCCN2C(=O)[C@@H]2CCCN2C(=O)[C@H](CC(=O)O)NC(=O)[C@H](CO)NC(=O)[C@H](CCCCN)NC(=O)[C@H]([C@@H](C)O)NC(=O)[C@@H]2CSSC[C@H](NC1=O)C(=O)N[C@@H](CO)C(=O)N1CCC[C@@H]1C(=O)N[C@@H](CC(=O)O)C(=O)N[C@@H](Cc1ccccc1)C(=O)N2 [Ex. 47] (HELM PEPTIDE1{F.C.T.K.S.D.P.P.I.C.S.[dP].D}$PEPTIDE1,PEPTIDE1,2:R3-10:R3|PEPTIDE1,PEPTIDE1,1:R1-13:R2$$$V2.0)
Key: 100

Exercise: Give recorded Cytotoxicity LC50/GI50 Hela cells. CCCC[C@@H]1NC(=O)[C@@H]2CCCN2C(=O)[C@H]2CCCN2C(=O)[C@H](Cc2ccc(O)cc2)NC(=O)[C@@H]2CSSC[C@H](NC1=O)C(=O)N[C@@H]([C@@H](C)O)C(=O)N[C@@H](CCCCN)C(=O)N[C@@H](CO)C(=O)N[C@@H](CC(=O)O)C(=O)N1CCC[C@H]1C(=O)N1CCC[C@H]1C(=O)N[C@@H]([C@@H](C)CC)C(=O)N2 [Ex. 44] (HELM PEPTIDE1{[Nle].C.T.K.S.D.P.P.I.C.Y.[dP].P}$PEPTIDE1,PEPTIDE1,2:R3-10:R3|PEPTIDE1,PEPTIDE1,1:R1-13:R2$$$V2.0)
Key: 67

* * *

biological target: Chymotrypsin, from human pancreas (Homo sapiens); experiment: Enzymatic assay, chymotrypsin; settings: at 100 μM
Sequence (P17538 19-263): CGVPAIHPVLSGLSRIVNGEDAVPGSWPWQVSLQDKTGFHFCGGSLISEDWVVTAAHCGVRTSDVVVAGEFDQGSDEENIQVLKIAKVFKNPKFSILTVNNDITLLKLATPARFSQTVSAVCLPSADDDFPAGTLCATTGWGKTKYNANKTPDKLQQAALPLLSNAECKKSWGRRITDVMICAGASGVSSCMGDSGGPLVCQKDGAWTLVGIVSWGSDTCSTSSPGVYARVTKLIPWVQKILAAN
Where a SMILES comes first, the peptide text is derived from it.
Assay Metric: Chymotrypsin at 100 μM % (%)
Your answer is read as %, so omit the unit and give the number.

Completed entries (count: 2):
Compound	Chymotrypsin at 100 μM % (%)
CC[C@H](C)[C@@H]1NC(=O)[C@@H]2CCCN2C(=O)[C@@H]2CCCN2C(=O)[C@H](CC(=O)O)NC(=O)[C@H](CO)NC(=O)[C@H](CCCCN)NC(=O)[C@H]([C@@H](C)O)NC(=O)[C@@H]2CSSC[C@H](NC1=O)C(=O)N[C@@H](CO)C(=O)N1CCC[C@@H]1C(=O)N1CCC[C@H]1C(=O)N[C@@H](Cc1ccccc1)C(=O)N2 [Ex. 4] (HELM PEPTIDE1{F.C.T.K.S.D.P.P.I.C.S.[dP].P}$PEPTIDE1,PEPTIDE1,2:R3-10:R3|PEPTIDE1,PEPTIDE1,1:R1-13:R2$$$V2.0)	1.8
C[C@@H](O)[C@@H]1NC(=O)[C@@H]2CSSC[C@H](NC(=O)[C@H](CC3CCCCC3)NC(=O)[C@@H]3CCCN3C(=O)[C@@H]3CCCN3C(=O)[C@H](CC(=O)O)NC(=O)[C@H](CO)NC(=O)[C@H](CCCCN)NC1=O)C(=O)N[C@@H](CO)C(=O)N1CCC[C@@H]1C(=O)N1CCC[C@H]1C(=O)N[C@@H](Cc1ccccc1)C(=O)N2 [Ex. 16] (HELM PEPTIDE1{F.C.T.K.S.D.P.P.[Cha].C.S.[dP].P}$PEPTIDE1,PEPTIDE1,2:R3-10:R3|PEPTIDE1,PEPTIDE1,1:R1-13:R2$$$V2.0)	17.9

Turning now to a further compound:
Exercise: Give recorded Chymotrypsin at 100 μM %. CC[C@H](C)[C@@H]1NC(=O)[C@@H]2CCCN2C(=O)[C@@H]2CCCN2C(=O)[C@H](CC(=O)O)NC(=O)[C@H](CO)NC(=O)[C@H](CCCCN)NC(=O)[C@H]([C@@H](C)O)NC(=O)[C@@H]2CSSC[C@H](NC1=O)C(=O)N[C@@H](CC(N)=O)C(=O)N1CCC[C@@H]1C(=O)N1CCC[C@H]1C(=O)N[C@@H](Cc1ccc(N)cc1)C(=O)N2 [Ex. 31] (HELM PEPTIDE1{[Nc1ccc(C[C@H](N[*:1])C(=O)[*:2])cc1].C.T.K.S.D.P.P.I.C.N.[dP].P}$PEPTIDE1,PEPTIDE1,2:R3-10:R3|PEPTIDE1,PEPTIDE1,1:R1-13:R2$$$V2.0)
Key: 15

* * *

pIC50 values for the compounds below.
Molecular target: Elastase from human neutrophils (Homo sapiens)
Sequence (P08246 30-267): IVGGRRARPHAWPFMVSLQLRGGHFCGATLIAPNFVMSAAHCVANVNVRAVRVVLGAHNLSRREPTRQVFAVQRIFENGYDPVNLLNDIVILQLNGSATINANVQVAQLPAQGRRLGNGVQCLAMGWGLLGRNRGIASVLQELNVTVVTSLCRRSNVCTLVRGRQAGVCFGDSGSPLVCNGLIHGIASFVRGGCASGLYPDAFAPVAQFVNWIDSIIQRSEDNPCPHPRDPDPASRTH
Test: Enzymatic assay, elastase
Conditions: Elastase IC50
Where a SMILES comes first, the peptide text is derived from it.
Units for pIC50: none; it is -log10 of a concentration expressed in mol/L.

Compound	pIC50
CC[C@H](C)[C@@H]1NC(=O)[C@H](CO)NC(=O)[C@H](C)NC(=O)[C@H]([C@@H](C)O)NC(=O)[C@@H]2CSSC[C@H](NC(=O)[C@H](CCC(N)=O)NC(=O)[C@@H]3CCCN3C(=O)[C@@H]3CCCN3C1=O)C(=O)N[C@@H](Cc1ccccc1)C(=O)N1CCC[C@@H]1C(=O)N1CCC[C@H]1C(=O)N[C@@H](CCc1ccccc1)C(=O)N2 [Ex. 146] (HELM PEPTIDE1{[O=C([C@H](CCc1ccccc1)N[*:1])[*:2]].C.T.A.S.I.P.P.Q.C.F.[dP].P}$PEPTIDE1,PEPTIDE1,2:R3-10:R3|PEPTIDE1,PEPTIDE1,1:R1-13:R2$$$V2.0)	7.92

Turning now to a further compound:
Exercise: Give recorded pIC50. CC[C@H](C)[C@@H]1NC(=O)[C@@H]2CCCN2C(=O)[C@@H]2CCCN2C(=O)[C@H](CCC(=O)O)NC(=O)[C@H](CO)NC(=O)[C@H](CCCCN)NC(=O)[C@H]([C@@H](C)O)NC(=O)[C@@H]2CSSC[C@H](NC1=O)C(=O)N[C@@H](CO)C(=O)N1CCC[C@@H]1C(=O)N1CCC[C@H]1C(=O)N[C@@H](Cc1ccccc1)C(=O)N2 [Ex. 21] (HELM PEPTIDE1{F.C.T.K.S.E.P.P.I.C.S.[dP].P}$PEPTIDE1,PEPTIDE1,2:R3-10:R3|PEPTIDE1,PEPTIDE1,1:R1-13:R2$$$V2.0)
Key: 7.79
